# study-target: F508delCFTR (Homo sapiens, UniProt P13569, DEL508-508)
# Construct: expressed in transfected cells; host or cells: CFBE41o- human lung derived epithelial cells (CFBE41o-F508delCFTR-HRP), doxycycline-inducible
# Sequence (P13569 with tags, fused parts or gaps DEL508-508): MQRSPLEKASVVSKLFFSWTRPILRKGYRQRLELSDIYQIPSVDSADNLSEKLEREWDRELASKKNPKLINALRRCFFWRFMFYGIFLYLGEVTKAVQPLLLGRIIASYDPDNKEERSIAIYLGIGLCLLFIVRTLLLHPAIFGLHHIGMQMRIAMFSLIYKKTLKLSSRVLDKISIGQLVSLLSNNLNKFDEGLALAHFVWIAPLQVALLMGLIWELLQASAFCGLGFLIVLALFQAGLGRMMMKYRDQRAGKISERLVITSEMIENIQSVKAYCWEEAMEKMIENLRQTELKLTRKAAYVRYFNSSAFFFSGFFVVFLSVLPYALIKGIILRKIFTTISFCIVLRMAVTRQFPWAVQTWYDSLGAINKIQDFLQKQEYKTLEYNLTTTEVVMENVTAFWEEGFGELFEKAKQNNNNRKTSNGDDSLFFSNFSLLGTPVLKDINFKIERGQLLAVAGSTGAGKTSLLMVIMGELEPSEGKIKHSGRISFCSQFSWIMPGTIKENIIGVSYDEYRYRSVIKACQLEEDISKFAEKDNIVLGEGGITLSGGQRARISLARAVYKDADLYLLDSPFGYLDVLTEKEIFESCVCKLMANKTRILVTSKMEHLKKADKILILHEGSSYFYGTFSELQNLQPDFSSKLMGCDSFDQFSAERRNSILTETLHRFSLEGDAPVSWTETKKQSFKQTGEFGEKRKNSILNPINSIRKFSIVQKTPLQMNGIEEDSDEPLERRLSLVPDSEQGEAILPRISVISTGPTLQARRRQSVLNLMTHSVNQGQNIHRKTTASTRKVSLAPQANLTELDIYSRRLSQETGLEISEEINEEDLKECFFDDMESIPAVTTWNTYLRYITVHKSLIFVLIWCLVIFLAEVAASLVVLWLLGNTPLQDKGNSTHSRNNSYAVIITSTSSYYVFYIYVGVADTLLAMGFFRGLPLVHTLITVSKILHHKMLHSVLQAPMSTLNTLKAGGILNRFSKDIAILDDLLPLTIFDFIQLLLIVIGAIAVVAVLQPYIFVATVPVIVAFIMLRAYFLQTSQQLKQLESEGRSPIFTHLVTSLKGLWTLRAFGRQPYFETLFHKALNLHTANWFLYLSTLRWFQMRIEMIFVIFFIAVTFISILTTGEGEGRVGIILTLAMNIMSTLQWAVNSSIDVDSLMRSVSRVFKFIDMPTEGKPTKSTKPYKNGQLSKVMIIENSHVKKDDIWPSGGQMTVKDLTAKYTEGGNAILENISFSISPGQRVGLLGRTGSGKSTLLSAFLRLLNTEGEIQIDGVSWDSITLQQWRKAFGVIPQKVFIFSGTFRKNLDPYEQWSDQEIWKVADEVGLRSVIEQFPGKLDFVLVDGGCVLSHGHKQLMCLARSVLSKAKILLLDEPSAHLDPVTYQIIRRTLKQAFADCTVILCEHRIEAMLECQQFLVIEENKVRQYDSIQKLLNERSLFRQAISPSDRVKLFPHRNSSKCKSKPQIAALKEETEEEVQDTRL
# test-description: Cell Surface Expression-Horse Radish Peroxidase (CSE-HRP) Assay;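 for Maximum % activity (without co-corrector): % of on-plate positive control chromenyl benzoic acid corrector at 2 or 3 µM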
# Assay type: cell-based
# measurement-conditions: without co-corrector; maximum at any tested concentration; read-out: Maximum % activity (without co-corrector)
parameter: Emax

INSERT INTO assay_data (smi, parameter, test_value) VALUES
  ('O=C(NS(=O)(=O)C1CC1)C1(c2ccc(Cl)cc2Cl)CC1', 'Emax', '< 50%'),
  ('COc1ncc(C(F)(F)F)cc1C1(C(=O)NS(=O)(=O)c2cccc3ncc(C)n23)CC1', 'Emax', '50 to 150%'),
  ('Cc1ccc(O[C@@H]2CCOC2)c(C2(C(=O)NS(=O)(=O)c3cccc4ncccc34)CC2)c1', 'Emax', '> 150%'),
  ('CCOC(C)(C)c1ccc(OC(F)F)c(C2(C(=O)NS(=O)(=O)c3cccc4ncccc34)CC2)c1', 'Emax', '> 150%'),
  ('CCc1ccc(O[C@H]2CCOC2)c(C2(C(=O)NS(=O)(=O)c3cccc4nc(C)ccc34)CC2)c1', 'Emax', '> 150%'),
  ('COc1ccc(C2CC2)cc1C1(C(=O)NS(=O)(=O)c2cccc3c2CCCN3)CCC1', 'Emax', '> 150%'),
  ('COc1ccc(C(C)(C)OC)cc1C1(C(=O)NS(=O)(=O)c2cccc3[nH]ccc23)CC1', 'Emax', '> 150%'),
  ('Cc1ccc(C2(C(=O)NS(=O)(=O)Cc3ccccc3)CC2)cc1', 'Emax', '< 50%'),
  ('COc1ccc(C(C)(C)OC)cc1C1(C(=O)NS(=O)(=O)c2cccc3nc(C)ccc23)CC1', 'Emax', '> 150%'),
  ('COc1ccc2c(S(=O)(=O)NC(=O)C3(c4cc(C5CCC5)cnc4OCC(C)C)CC3)cccc2n1', 'Emax', '> 150%'),
  ('CC(C)Oc1cnc(C2CCC2)cc1C1(C(=O)NS(=O)(=O)c2cccc3[nH]ccc23)CC1', 'Emax', '> 150%'),
  ('COc1ccc(Br)cc1C1(C(=O)NS(=O)(=O)c2cccc3ncccc23)CC1', 'Emax', '> 150%'),
  ('COc1ccc(C2CCC2)cc1C1(C(=O)NS(=O)(=O)c2cccc3c2CCN3)CC1', 'Emax', '> 150%'),
  ('COc1ccc(C)nc1C1(C(=O)NS(=O)(=O)c2cccc3nc(C)ccc23)CC1', 'Emax', '50 to 150%'),
  ('COc1cc(C2(C(=O)NS(=O)(=O)c3cccc4[nH]ccc34)CC2)c(OCC(C)C)cn1', 'Emax', '> 150%'),
  ('COc1ccc2c(S(=O)(=O)NC(=O)C3(c4cc(C5CC5)cnc4OCC(C)C)CC3)cccc2n1', 'Emax', '> 150%'),
  ('Cc1ccc2c(S(=O)(=O)NC(=O)C3(c4cc(C5CCC5)ncc4OC(C)C)CC3)cccc2n1', 'Emax', '> 150%'),
  ('COc1ccc(C23CC(C2)C3)cc1C1(C(=O)NS(=O)(=O)c2cccc3ncccc23)CC1', 'Emax', '> 150%'),
  ('O=C(NS(=O)(=O)c1cccc2ccccc12)C1(c2ccc3c(c2)OC(F)(F)O3)CC1', 'Emax', '> 150%'),
  ('COc1cccc(C2(C(=O)NS(=O)(=O)c3ccccc3C)CCOCC2)c1', 'Emax', '< 50%'),
  ('O=C(NS(=O)(=O)CCCCl)C1(c2ccc(Cl)cc2Cl)CC1', 'Emax', '< 50%'),
  ('O=C(NS(=O)(=O)c1ccccc1)C1(c2ccccc2)CC1', 'Emax', '< 50%'),
  ('COc1ncc(C(F)(F)F)cc1C1(C(=O)NS(=O)(=O)c2cccc3[nH]ncc23)CC1', 'Emax', '> 150%'),
  ('O=C(NS(=O)(=O)c1ccc(-n2cccn2)cc1)C1(c2cccc(Cl)c2)CC1', 'Emax', '< 50%'),
  ('COc1ccc(C(C)(C)C)cc1C1(C(=O)NS(=O)(=O)c2cccc3nc(C)ccc23)CC1', 'Emax', '> 150%'),
  ('COc1c(C)cccc1C1(C(=O)NS(=O)(=O)c2cccc3ncccc23)CC1', 'Emax', '> 150%'),
  ('CC(=O)N1CCc2cc(S(=O)(=O)NC(=O)C3(c4cccc(Cl)c4)CC3)ccc21', 'Emax', '< 50%'),
  ('Cc1ccc(OC2COC2)c(C2(C(=O)NS(=O)(=O)c3cccc4ncccc34)CC2)c1', 'Emax', '> 150%'),
  ('O=C(NS(=O)(=O)c1ccccc1)C1(c2ccc(Cl)cc2)CC1', 'Emax', '< 50%'),
  ('COc1ccc(C(C)(C)OC)cc1C1(C(=O)NS(=O)(=O)c2cccc3ncccc23)CC1', 'Emax', '> 150%'),
  ('COc1cc(F)c(C(C)C)cc1C1(C(=O)NS(=O)(=O)c2cccc3ncccc23)CC1', 'Emax', '> 150%'),
  ('CO[C@@H](C)COc1ccc(C)cc1C1(C(=O)NS(=O)(=O)c2cccc3ncccc23)CC1', 'Emax', '> 150%');

---

# study-target: F508delCFTR (Homo sapiens, UniProt P13569, DEL508-508)
# Construct: expressed in transfected cells; host or cells: CFBE41o- human lung derived epithelial cells (CFBE41o-F508delCFTR-HRP), doxycycline-inducible
# test-description: Cell Surface Expression-Horse Radish Peroxidase (CSE-HRP) Assay;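 for Maximum % activity (without co-corrector): % of on-plate positive control chromenyl benzoic acid corrector at 2 or 3 µM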
# Type: cell-based
# measurement-conditions: without co-corrector; maximum at any tested concentration; read-out: Maximum % activity (without co-corrector)
parameter: Emax

INSERT INTO assay_data (smi, test_value) VALUES
  ('CCCc1nc(C(F)(F)F)ccc1C1(C(=O)NS(=O)(=O)c2cccc3ncccc23)CC1', '> 150%'),
  ('COc1ncc(C2CCC2)c(C)c1C1(C(=O)NS(=O)(=O)c2cccc3c2CCCN3)CC1', '> 150%'),
  ('O=C(NS(=O)(=O)C1CCNCC1)C1(c2ccc(Cl)cc2Cl)CC1', '< 50%'),
  ('O=C(NS(=O)(=O)c1ccc(Br)s1)C1(c2ccc(Cl)cc2Cl)CC1', '< 50%'),
  ('CC(C)Oc1ncc(Br)cc1C1(C(=O)NS(=O)(=O)c2cccc3c2CCCN3)CC1', '> 150%'),
  ('COc1ccccc1C1(C(=O)NS(=O)(=O)c2ccccc2C)CC1', '50 to 150%'),
  ('COc1ncc(C)cc1C1(C(=O)NS(=O)(=O)c2cccc3ccccc23)CC1', '> 150%'),
  ('COc1ncc(C2CCC2)cc1C1(C(=O)NS(=O)(=O)c2cccc3[nH]ncc23)CC1', '> 150%');

---

# study-target: F508delCFTR (Homo sapiens, UniProt P13569, DEL508-508)
# Construct: expressed in transfected cells; host or cells: CFBE41o- human lung derived epithelial cells (CFBE41o-F508delCFTR-HRP), doxycycline-inducible
# test-description: Cell Surface Expression-Horse Radish Peroxidase (CSE-HRP) Assay;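 for EC50 (with co-corrector): co-corrector chromenyl benzoic acid corrector at 2 or 3 µM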
# Assay type: cell-based
# measurement-conditions: with co-corrector; read-out: EC50 (with co-corrector)
parameter: EC50

INSERT INTO measurements (smi, test_value) VALUES
  ('COc1cc(C2CCC2)cc(OC)c1C1(C(=O)NS(=O)(=O)c2cccc3ccn(C)c23)CC1', '< 3 µM'),
  ('COc1ncc(C(F)(F)F)cc1C1(C(=O)NS(=O)(=O)c2cccn3nccc23)CC1', '3 to 10 µM'),
  ('Cc1cnc(OC(C)C)c(C2(C(=O)NS(=O)(=O)c3cccc4[nH]ncc34)CC2)c1', '3 to 10 µM'),
  ('COc1ncc(C(F)(F)F)cc1C1(C(=O)NS(=O)(=O)c2cccc3[nH]ncc23)CC1', '3 to 10 µM'),
  ('CCOc1ccc(C2(OC)CCC2)cc1C1(C(=O)NS(=O)(=O)c2cccc3nc(C)ccc23)CC1', '< 3 µM'),
  ('O=C(NS(=O)(=O)C(F)(F)F)C1(c2ccc(Cl)cc2Cl)CC1', '> 10 µM'),
  ('Cc1ccc(S(=O)(=O)NC(=O)C2(c3cccc(Cl)c3)CC2)nc1', '> 10 µM'),
  ('O=C(NS(=O)(=O)C1CC1)C1(c2ccc(Cl)cc2Cl)CC1', '3 to 10 µM'),
  ('COc1cc(C2CCC2)cc(OC)c1C1(C(=O)NS(=O)(=O)c2cccc3[nH]ncc23)CC1', '3 to 10 µM'),
  ('CC(C)Oc1ccc(S(=O)(=O)NC(=O)C2(c3ccc(Cl)cc3Cl)CC2)cc1', '> 10 µM'),
  ('O=C(NS(=O)(=O)c1cccc2ncccc12)C1(c2cc(OC(F)(F)F)ccc2Cl)CC1', '< 3 µM'),
  ('COc1ccc(S(=O)(=O)NC(=O)C2(c3ccc(Cl)cc3Cl)CC2)cc1OC', '3 to 10 µM'),
  ('COc1ncc(C2CCC2)c(C)c1C1(C(=O)NS(=O)(=O)c2cccc3c2ccn3C)CC1', '< 3 µM'),
  ('Cc1ccc(OC(F)F)c(C2(C(=O)NS(=O)(=O)c3cccc4ncccc34)CC2)c1', '< 3 µM'),
  ('Cc1ccc(OC2COC2)c(C2(C(=O)NS(=O)(=O)c3cccc4nc(N)ccc34)CC2)c1', '3 to 10 µM'),
  ('COc1ccc(C2(C(=O)NS(=O)(=O)c3cccc4ccccc34)CCCC2)cc1OC', '> 10 µM'),
  ('O=C(NS(=O)(=O)c1cccc(C(F)(F)F)c1)C1(c2ccc(Cl)cc2Cl)CC1', '3 to 10 µM'),
  ('COc1ccc(C2CCC2)cc1C1(C(=O)NS(=O)(=O)c2cccc3cnn(C)c23)CC1', '< 3 µM'),
  ('COC(=O)c1ccc(Cl)cc1S(=O)(=O)NC(=O)C1(c2ccc(Cl)cc2Cl)CC1', '3 to 10 µM'),
  ('O=C(NS(=O)(=O)Cc1ccccc1)C1(c2ccccc2F)CC1', '> 10 µM'),
  ('COc1ccc(C(C)(C)OC)cc1C1(C(=O)NS(=O)(=O)c2cccc3ncccc23)CC1', '< 3 µM'),
  ('COc1ccc(C2CCC2)c(C2(C(=O)NS(=O)(=O)c3cccc4ncccc34)CC2)c1', '< 3 µM'),
  ('COc1ccc(C2CC2)cc1C1(C(=O)NS(=O)(=O)c2cccc3ccccc23)CC1', '< 3 µM'),
  ('O=C(NS(=O)(=O)c1cccc2ncccc12)C1(c2ccccc2OC(F)(F)F)CCC1', '< 3 µM'),
  ('Cc1cnc(OCC(C)C)c(C2(C(=O)NS(=O)(=O)c3cccc4[nH]ncc34)CC2)c1', '< 3 µM'),
  ('[2H]C1(c2ccc(OC)c(C3(C(=O)NS(=O)(=O)c4cccc5ncccc45)CC3)c2)COC1', '3 to 10 µM'),
  ('O=C(NS(=O)(=O)c1ccccc1)C1(c2ccc(F)cc2)CC1', '3 to 10 µM'),
  ('COc1cc(C)ccc1C1(C(=O)NS(=O)(=O)c2cccc3ncccc23)CC1', '< 3 µM'),
  ('COc1ccc(C2CCC2)cc1C1(C(=O)NS(=O)(=O)c2cccn3nccc23)CC1', '< 3 µM'),
  ('Cc1ccc(C2(C(=O)NS(=O)(=O)c3ccccc3)CC2)cc1', '3 to 10 µM'),
  ('O=C(NS(=O)(=O)c1cccc2c1CCCN2)C1(c2ccc(C(F)(F)F)nc2C2CCC2)CC1', '< 3 µM'),
  ('COc1ccc(C2CC2)c(C)c1C1(C(=O)NS(=O)(=O)c2cccc3nc(C)ccc23)CC1', '< 3 µM'),
  ('COc1ccc(C)c(C)c1C1(C(=O)NS(=O)(=O)c2cccc3c2CCCN3)CC1', '< 3 µM');
